testSystem: S. aureus topoisomerase IV (Staphylococcus aureus, UniProt P0C1S7)
Construct: purchased Inspiralis
Sequence (P0C1U9 whole entry): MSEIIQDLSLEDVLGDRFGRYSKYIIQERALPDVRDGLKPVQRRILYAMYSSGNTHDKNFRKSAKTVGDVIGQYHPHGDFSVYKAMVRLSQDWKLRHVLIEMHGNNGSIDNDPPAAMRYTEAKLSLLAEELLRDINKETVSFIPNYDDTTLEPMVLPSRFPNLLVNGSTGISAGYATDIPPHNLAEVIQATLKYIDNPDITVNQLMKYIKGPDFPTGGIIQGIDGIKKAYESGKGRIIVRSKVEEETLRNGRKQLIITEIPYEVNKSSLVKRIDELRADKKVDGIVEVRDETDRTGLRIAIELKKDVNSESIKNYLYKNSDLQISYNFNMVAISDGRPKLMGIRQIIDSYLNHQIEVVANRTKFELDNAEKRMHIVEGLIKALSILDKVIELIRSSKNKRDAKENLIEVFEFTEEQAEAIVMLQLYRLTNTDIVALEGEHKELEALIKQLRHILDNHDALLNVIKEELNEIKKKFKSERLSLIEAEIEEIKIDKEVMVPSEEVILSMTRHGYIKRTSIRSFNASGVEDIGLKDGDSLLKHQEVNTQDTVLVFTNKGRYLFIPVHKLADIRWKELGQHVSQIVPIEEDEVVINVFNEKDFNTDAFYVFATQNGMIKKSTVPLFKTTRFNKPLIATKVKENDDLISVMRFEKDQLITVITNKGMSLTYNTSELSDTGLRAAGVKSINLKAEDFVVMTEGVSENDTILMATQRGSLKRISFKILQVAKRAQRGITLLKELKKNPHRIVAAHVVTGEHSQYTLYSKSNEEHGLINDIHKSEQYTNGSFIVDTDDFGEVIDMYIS
Sequence (P0C1S7 whole entry): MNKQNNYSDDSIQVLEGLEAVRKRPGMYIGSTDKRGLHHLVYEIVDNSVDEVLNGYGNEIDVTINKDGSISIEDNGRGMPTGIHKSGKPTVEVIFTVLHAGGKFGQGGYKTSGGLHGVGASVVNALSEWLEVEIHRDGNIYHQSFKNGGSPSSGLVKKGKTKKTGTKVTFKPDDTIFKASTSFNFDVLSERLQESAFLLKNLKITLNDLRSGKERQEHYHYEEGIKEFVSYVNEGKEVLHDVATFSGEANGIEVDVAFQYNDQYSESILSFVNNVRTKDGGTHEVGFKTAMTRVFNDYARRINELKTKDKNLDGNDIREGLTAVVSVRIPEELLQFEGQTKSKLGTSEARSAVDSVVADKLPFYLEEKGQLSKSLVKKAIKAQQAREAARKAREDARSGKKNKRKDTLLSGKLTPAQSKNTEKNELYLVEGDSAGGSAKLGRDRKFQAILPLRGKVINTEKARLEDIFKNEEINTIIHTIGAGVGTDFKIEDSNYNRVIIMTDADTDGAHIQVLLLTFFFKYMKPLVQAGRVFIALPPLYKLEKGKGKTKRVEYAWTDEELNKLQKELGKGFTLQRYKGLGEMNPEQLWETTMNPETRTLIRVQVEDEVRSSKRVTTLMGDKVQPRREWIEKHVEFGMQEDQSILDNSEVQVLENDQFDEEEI
testSummary: Topoisomerase IV inhibition assay (Inspiralis, streptavidin-coated plates)
Type: biochemical
recordedMetric: IC50 (µM)
I only need the number, in µM, no unit after it.

Need IC50, item Cc1[nH]c(C(=O)Nc2ccc(-n3nn[nH]c3=O)cc2N2CCC(N)CC2)c(Cl)c1Cl.Cl [Example 23]
6.2

* * *

Tested on: S. aureus ATCC 43300 (MRSA)
testSummary: Microbroth dilution MIC (CLSI)
Format: cell-based
cond: Staphylococcus aureus; S. aureus ATCC 43300 (MRSA); read-out: MIC
recordedMetric: MIC (µg/mL)
Dear colleague, please return just the value in µg/mL, with no unit written.

{"compound": "Cc1[nH]c(C(=O)Nc2ccc(-c3noc(=O)[nH]3)cc2N2CCC(N)CC2)c(Cl)c1Cl.Cl [Example 1]", "unitsOfMeasure": "µg/mL", "MIC": 32}

Let us move to another entry and its MIC.
Looking for the measured MIC of Cc1[nH]c(C(=O)Nc2ccc(-c3n[nH]c(=O)o3)cc2OC2CCNCC2)c(Cl)c1Cl.Cl [Example 27] , can you help?
8
